TEST PROTOCOL: The drug is tested on WLS-038 corresponding to human gut metagenome with ENA study accession number: PRJEB37062 and ENA sample accession number: ERS12561745 for biotransformation under anaerobic condition. The drug concentrations were measured over 9 timepoints collected between 0 and 24 hours of incubation by liquid-chromatography-coupled mass spectrometry (LC–MS); further: call rule not given here
CONDITION DESCRIPTION: 2 µM

# COMPOUND, Bacterial Biotransformation
records = [
    ("CNCC[C@H](Oc1cccc2ccccc12)c1cccs1 [DULOXETINE]", "Compound NOT metabolized"),
    ("COc1cc2nc(N3CCN(C(=O)C4COc5ccccc5O4)CC3)nc(N)c2cc1OC.CS(=O)(=O)O (centres undefined) [DOXAZOSIN MESYLATE]", "Compound metabolized"),
    ("Cc1cc2c(s1)Nc1ccccc1N=C2N1CCN(C)CC1 [OLANZAPINE]", "Compound NOT metabolized"),
    ("Br.COc1ccc2c(c1)[C@]13CCCC[C@@H]1[C@H](C2)N(C)CC3.O [DEXTROMETHORPHAN HYDROBROMIDE]", "Compound NOT metabolized"),
    ("C#C[C@]1(OC(C)=O)CC[C@H]2[C@@H]3CCC4=CC(=O)CC[C@@H]4[C@H]3CC[C@@]21C [NORETHINDRONE ACETATE]", "Compound metabolized"),
    ("CCS(=O)(=O)CCn1c([N+](=O)[O-])cnc1C [TINIDAZOLE]", "Compound metabolized"),
    ("c1ccc2[nH]c(-c3cscn3)nc2c1 [THIABENDAZOLE]", "Compound NOT metabolized"),
    ("CCN(C(C)=O)c1cccc(-c2ccnc3c(C#N)cnn23)c1 [ZALEPLON]", "Compound metabolized"),
    ("N=C(N)NC(=O)Cc1c(Cl)cccc1Cl [GUANFACINE]", "Compound NOT metabolized"),
]

* * *

TEST PROTOCOL: The drug is tested on Z-028 corresponding to mouse gut metagenome with ENA study accession number: PRJEB37062 and ENA sample accession number: ERS12561827 for biotransformation under anaerobic condition. The drug concentrations were measured over 9 timepoints collected between 0 and 24 hours of incubation by liquid-chromatography-coupled mass spectrometry (LC–MS)
CONDITION DESCRIPTION: 2 µM

# COMPOUND, Bacterial Biotransformation
data = [
    ("CCN(C)C(=O)Oc1cccc([C@H](C)N(C)C)c1.O=C(O)C(O)C(O)C(=O)O [RIVASTIGMINE TARTRATE]", "Compound NOT metabolized"),
    ("O=C1C(CC[S+]([O-])c2ccccc2)C(=O)N(c2ccccc2)N1c1ccccc1 (configuration not stated)", "Compound metabolized"),
    ("CN1[C@@H]2CC[C@H]1C[C@@H](OC(=O)[C@H](CO)c1ccccc1)C2", "Compound NOT metabolized"),
    ("CN1C[C@H](C(=O)N[C@]2(C)O[C@@]3(O)[C@@H]4CCCN4C(=O)[C@H](Cc4ccccc4)N3C2=O)C[C@@H]2c3cccc4[nH]cc(c34)C[C@H]21.CS(=O)(=O)O [DIHYDROERGOTAMINE MESYLATE]", "Compound NOT metabolized"),
    ("COc1cc(C(=O)NCc2ccc(OCCN(C)C)cc2)cc(OC)c1OC [TRIMETHOBENZAMIDE]", "Compound NOT metabolized"),
    ("C#C[C@]1(OC(C)=O)CC[C@H]2[C@@H]3CCC4=C[C@@H](OC(C)=O)CC[C@@H]4[C@H]3CC[C@@]21C [ETHYNODIOL DIACETATE]", "Compound metabolized"),
    ("CC(=O)OCC(=O)NCCCOc1cccc(CN2CCCCC2)c1 [ROXATIDINE ACETATE]", "Compound metabolized"),
]

* * *

CONDITION DESCRIPTION: human gut metagenome, 24 h, 2 µM

# COMPOUND, Bacterial Biotransformation
rows = [
    ("N#Cc1ccc2c(c1)N(CCCN1CCC(O)CC1)c1ccccc1S2", "Compound NOT metabolized"),
    ("COc1ccc(/C=C/C(=O)Nc2ccccc2C(=O)O)cc1OC", "Compound NOT metabolized"),
    ("CCOC(=O)[C@H](CCc1ccccc1)N[C@@H](C)C(=O)N1CCC[C@H]1C(=O)O.O=C(O)/C=C\\C(=O)O [ENALAPRIL MALEATE]", "Compound NOT metabolized"),
    ("CCN(C)C(=O)Oc1cccc([C@H](C)N(C)C)c1.O=C(O)C(O)C(O)C(=O)O [RIVASTIGMINE TARTRATE]", "Compound NOT metabolized"),
    ("CC(=O)CCCCn1c(=O)c2c(ncn2C)n(C)c1=O", "Compound NOT metabolized"),
    ("O=C(CCCN1CCC2(CC1)C(=O)NCN2c1ccccc1)c1ccc(F)cc1", "Compound NOT metabolized"),
    ("CN1CCC(OC(c2ccccc2)c2ccccc2)CC1", "Compound NOT metabolized"),
    ("O=C1CN2Cc3c(ccc(Cl)c3Cl)N=C2N1 [ANAGRELIDE]", "Compound NOT metabolized"),
    ("C=CC[C@@H]1/C=C(\\C)C[C@H](C)C[C@H](OC)[C@H]2O[C@@](O)(C(=O)C(=O)N3CCCC[C@H]3C(=O)O[C@H](/C(C)=C/[C@@H]3CC[C@@H](O)[C@H](OC)C3)[C@H](C)[C@@H](O)CC1=O)[C@H](C)C[C@@H]2OC.O", "Compound metabolized"),
    ("C=C[C@H]1CN2CC[C@H]1C[C@H]2[C@H](O)c1ccnc2ccc(OC)cc12.C=C[C@H]1CN2CC[C@H]1C[C@H]2[C@H](O)c1ccnc2ccc(OC)cc12.O.O.O=S(=O)(O)O [QUININE SULFATE]", "Compound NOT metabolized"),
    ("CC(C)(C)NCC(O)COc1cccc2c1CC(O)C(O)C2 (stereo unspecified)", "Compound NOT metabolized"),
    ("c1ccc2[nH]c(-c3cscn3)nc2c1", "Compound NOT metabolized"),
    ("CCOC(=O)C1=C(C)NC(C)=C(C(=O)OC)C1c1cccc([N+](=O)[O-])c1 (stereo unspecified)", "Compound metabolized"),
    ("CN[C@H]1CC[C@@H](c2ccc(Cl)c(Cl)c2)c2ccccc21", "Compound NOT metabolized"),
    ("COc1ccc2c(c1)c(CC(=O)O)c(C)n2C(=O)c1ccc(Cl)cc1", "Compound NOT metabolized"),
    ("CC(NC(C)(C)C)C(=O)c1cccc(Cl)c1 (stereo unspecified)", "Compound NOT metabolized"),
]

* * *

CONDITION DESCRIPTION: human gut metagenome, 24 h, 2 µM
PROPERTY NAME: Bacterial Biotransformation

# MOLECULE, ASSAY VALUE
data = [
    ("CN1CCC(OC(c2ccccc2)c2ccccc2)CC1", "Compound metabolized"),
    ("N[C@@H](Cc1ccc(N(CCCl)CCCl)cc1)C(=O)O", "Compound metabolized"),
    ("CCCN1C[C@H](CSC)C[C@@H]2c3cccc4[nH]cc(c34)C[C@H]21.CS(=O)(=O)O [PERGOLIDE MESYLATE]", "Compound NOT metabolized"),
    ("COCCCC/C(=N\\OCCN)c1ccc(C(F)(F)F)cc1.O=C(O)/C=C\\C(=O)O [FLUVOXAMINE MALEATE]", "Compound metabolized"),
    ("C#C[C@]1(OC(C)=O)CC[C@H]2[C@@H]3CCC4=CC(=O)CC[C@@H]4[C@H]3CC[C@@]21C [NORETHINDRONE ACETATE]", "Compound metabolized"),
    ("CCN(C(C)=O)c1cccc(-c2ccnc3c(C#N)cnn23)c1", "Compound metabolized"),
    ("CN1CCN2c3ccccc3Cc3ccccc3C2C1 (centres undefined)", "Compound metabolized"),
    ("CCCC(C)(COC(N)=O)COC(=O)NC(C)C (centres undefined)", "Compound metabolized"),
    ("CC#C[C@]1(O)CC[C@H]2[C@@H]3CCC4=CC(=O)CCC4=C3[C@@H](c3ccc(N(C)C)cc3)C[C@@]21C", "Compound NOT metabolized"),
    ("CC(=O)OCC(=O)NCCCOc1cccc(CN2CCCCC2)c1 [ROXATIDINE ACETATE]", "Compound metabolized"),
    ("CN(C)C(=O)Oc1cccc([N+](C)(C)C)c1.[Br-] [NEOSTIGMINE BROMIDE]", "Compound NOT metabolized"),
    ("CC(C)(C)NC(=O)[C@H]1CC[C@H]2[C@@H]3CC[C@H]4NC(=O)C=C[C@]4(C)[C@H]3CC[C@]12C [FINASTERIDE]", "Compound metabolized"),
    ("CNNCc1ccc(C(=O)NC(C)C)cc1", "Compound NOT metabolized"),
    ("CCc1oc2ccccc2c1C(=O)c1cc(Br)c(O)c(Br)c1", "Compound metabolized"),
    ("Nc1nc(NC2CC2)c2ncn([C@H]3C=C[C@@H](CO)C3)c2n1.Nc1nc(NC2CC2)c2ncn([C@H]3C=C[C@@H](CO)C3)c2n1.O=S(=O)(O)O [ABACAVIR SULFATE]", "Compound NOT metabolized"),
    ("COc1ccnc(C[S+]([O-])c2nc3ccc(OC(F)F)cc3[nH]2)c1OC (centres undefined)", "Compound metabolized"),
    ("COc1ccc(C(CN(C)C)C2(O)CCCCC2)cc1 (centres undefined)", "Compound NOT metabolized"),
    ("CN1CCC(=C2c3ccccc3CC(=O)c3sccc32)CC1.O=C(O)/C=C/C(=O)O [KETOTIFEN FUMARATE]", "Compound NOT metabolized"),
    ("C[C@]12C=CC(=O)C=C1CC[C@@H]1[C@@H]2C(=O)C[C@@]2(C)[C@H]1CC[C@]2(O)C(=O)CO", "Compound metabolized"),
    ("C=CC[C@@H]1/C=C(\\C)C[C@H](C)C[C@H](OC)[C@H]2O[C@@](O)(C(=O)C(=O)N3CCCC[C@H]3C(=O)O[C@H](/C(C)=C/[C@@H]3CC[C@@H](O)[C@H](OC)C3)[C@H](C)[C@@H](O)CC1=O)[C@H](C)C[C@@H]2OC.O", "Compound metabolized"),
    ("CCN(CC)CCNC(=O)c1ccc(NC(C)=O)cc1 [ACECAINIDE]", "Compound NOT metabolized"),
    ("COc1cc(NC(C)CCCN)c2ncccc2c1.O=P(O)(O)O.O=P(O)(O)O (centres undefined) [PRIMAQUINE PHOSPHATE]", "Compound NOT metabolized"),
    ("N#Cc1ccc2[nH]cc(CCCCN3CCN(c4ccc5oc(C(N)=O)cc5c4)CC3)c2c1", "Compound metabolized"),
    ("OC(c1cc(C(F)(F)F)nc2c(C(F)(F)F)cccc12)C1CCCCN1 (centres undefined)", "Compound metabolized"),
    ("COc1ccc(CN2CCNCC2)c(OC)c1OC.Cl.Cl [TRIMETAZIDINE DIHYDROCHLORIDE]", "Compound NOT metabolized"),
    ("CC(N)C12CC3CC(CC(C3)C1)C2 (centres undefined)", "Compound NOT metabolized"),
    ("COC(=O)C(c1ccccc1)C1CCCCN1 (centres undefined) [METHYLPHENIDATE]", "Compound NOT metabolized"),
    ("COc1ccc2cc([C@H](C)C(=O)O)ccc2c1", "Compound metabolized"),
    ("O=C(O)CCC(=O)O.O=C(O[C@H]1CN2CCC1CC2)N1CCc2ccccc2[C@@H]1c1ccccc1 [SOLIFENACIN SUCCINATE]", "Compound NOT metabolized"),
    ("O=C1C(CC[S+]([O-])c2ccccc2)C(=O)N(c2ccccc2)N1c1ccccc1 (centres undefined)", "Compound metabolized"),
    ("CCc1cccc2c3c([nH]c12)C(CC)(CC(=O)O)OCC3 (centres undefined)", "Compound metabolized"),
    ("c1ccc2[nH]c(-c3cscn3)nc2c1", "Compound NOT metabolized"),
    ("CC(=O)Nc1ccc(OC(C)=O)cc1 [DIACETAMATE]", "Compound metabolized"),
    ("COC1=C(OC)C(=O)C(CCCCCCCCCCO)=C(C)C1=O", "Compound metabolized"),
]
